biological target: MRGPRX2-MUT (MRGPRX2 N62S mutation) (Homo sapiens, UniProt Q96LB1, N62S); construct: expressed in transfected cells; experiment: Primary HTS, Ca2+ mobilization (fluorescence ratio, B-score) in HEK293-Gα15 cells stably expressing the MRGPRX2 N62S mutation; assay type: cell-based; settings: MRGPRX2-MUT in comparison to MRGPRX2-WT cells, 10 μM, Table 1
Sequence (Q96LB1 whole entry N62S): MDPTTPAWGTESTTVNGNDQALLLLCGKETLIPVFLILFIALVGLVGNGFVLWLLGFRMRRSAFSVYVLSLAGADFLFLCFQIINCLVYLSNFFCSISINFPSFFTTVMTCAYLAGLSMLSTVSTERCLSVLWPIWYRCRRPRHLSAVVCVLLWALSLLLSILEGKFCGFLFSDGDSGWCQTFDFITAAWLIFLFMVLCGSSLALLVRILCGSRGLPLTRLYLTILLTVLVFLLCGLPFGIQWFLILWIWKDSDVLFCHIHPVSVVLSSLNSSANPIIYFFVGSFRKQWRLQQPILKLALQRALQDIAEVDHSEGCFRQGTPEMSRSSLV
Where a name gives a salt, the structure may show the parent alone.
Threshold rule: Change of B-scores (%) greater than or equal to -90% is Met; below that, Not met.

Record excerpt, results attached:
| Compound | Category |
| --- | --- |
| CN1CCC(=C2c3ccccc3CC(=O)c3sccc32)CC1 [Ketotifen] | Not met |
| CN1CCC(=C2c3ccccc3C=Cc3ccccc32)CC1 [Cyproheptadine Hydrochloride] | Not met |
| CN(C)CCC(c1ccc(Br)cc1)c1ccccn1 (centres unmarked) [Brompheniramine] | Not met |
| CO[C@@H](C(=O)N1Cc2n[nH]c(NC(=O)c3ccc(N4CCN(C)CC4)cc3)c2C1)c1ccccc1 | Not met |

Then there is this compound:
Prompt: Reported Change of B-scores (%) reaches at least -90% for CNCCC(Oc1ccc(C(F)(F)F)cc1)c1ccccc1 (centres unmarked) ?
Completion: Met

###

Each record here notes measured B-scores (WT).
Target: MRGPRX2-WT (wild-type MRGPRX2 receptor) (Homo sapiens)
Construct: expressed in transfected cells
Sequence (Q96LB1 whole entry): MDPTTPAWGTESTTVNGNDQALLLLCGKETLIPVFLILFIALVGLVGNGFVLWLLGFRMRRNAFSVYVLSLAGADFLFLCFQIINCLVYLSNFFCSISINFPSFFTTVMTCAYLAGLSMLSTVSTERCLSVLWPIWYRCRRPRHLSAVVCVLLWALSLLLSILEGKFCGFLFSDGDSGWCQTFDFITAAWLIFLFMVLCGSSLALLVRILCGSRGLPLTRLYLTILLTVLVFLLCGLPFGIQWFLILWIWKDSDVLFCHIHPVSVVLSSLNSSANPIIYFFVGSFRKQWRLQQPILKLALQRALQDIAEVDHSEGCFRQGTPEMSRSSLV
Assay: Primary HTS, Ca2+ mobilization (fluorescence ratio, B-score) in HEK293-Gα15 cells stably expressing wild-type MRGPRX2
Format: cell-based
Conditions: 10 μM compound, Supplementary Table 1
Description: We performed an experimental HTS on the Johns Hopkins Drug Library, which includes 1,811 (57%) FDA-approved drugs among 3,456 total compounds (28% of all known drugs worldwide) ([15]). […] We utilized 10 μM compounds (each compound was tested in triplicate) and calculated the compound effect using the signal-to-background fluorescence ratio (see Supplementary Methods). […]
Where a name gives a salt, the structure may show the parent alone.

Here are 4 compounds together with their reported answers.
| Compound | B-scores (WT) |
| --- | --- |
| CN1CCc2c(c3ccccc3n2Cc2ccccc2)C1.CN1CCc2c(c3ccccc3n2Cc2ccccc2)C1.O=S(=O)(O)c1cccc2c(S(=O)(=O)O)cccc12 [Mebhydrolin Naphthalenesulfonate] | 25.34 |
| CNCCC(Oc1ccc(C(F)(F)F)cc1)c1ccccc1 (centres unmarked) [Fluoxetine] | 36.30 |
| CCCCC(CC)CNC(=N)NC(=N)NCCCCCCNC(=N)NC(=N)NCC(CC)CCCC (centres unmarked) [Alexidine Hydrochloride] | 30.77 |
| CC(Cc1ccc(O)cc1)NCC(O)c1cc(O)cc(O)c1 (centres unmarked) [Fenoterol] | 23.48 |

Prompt: Look up B-scores (WT): CN1CCN(c2cc3c(cc2F)c(=O)c(C(=O)O)cn3-c2ccc(F)cc2)CC1 [Difloxacin Hydrochloride]
Completion: 44.81

Prompt: What do you get for COc1ccc(CN(CCN(C)C)c2ncccn2)cc1 [Thonzylamine Hydrochloride] ?
Completion: 33.23

Prompt: One more compound: CN1CCN(c2c(F)cc3c(=O)c(C(=O)O)cn4c3c2SCC4)CC1.Cl [Rufloxacin Hydrochloride]
Completion: 19.85

Prompt: Now consider C=C[C@@]1(C)CC(=O)[C@]2(O)[C@@]3(C)[C@@H](O)CCC(C)(C)[C@@H]3[C@H](O)[C@H](OC(C)=O)[C@@]2(C)O1 [Colforsin] and answer again.
Completion: 21.10

###

Listed next: entries and their corresponding B-scores (WT).
biological target: MRGPRX2-WT (wild-type MRGPRX2 receptor) (Homo sapiens); construct: expressed in transfected cells; assay: Primary HTS, Ca2+ mobilization (fluorescence ratio, B-score) in HEK293-Gα15 cells stably expressing wild-type MRGPRX2; format: cell-based; conditions: 10 μM compound, Supplementary Table 1
Counter-ions that a name gives are not always drawn.

Solved cases below.
| Compound | Result |
| --- | --- |
| Nc1ncnc2c1ncn2[C@@H]1O[C@H](CO)[C@@H](O)[C@H]1O [Adenosine] | 35.61 |
| CN1CCN(CC/C=C2/c3ccccc3Sc3ccc(S(=O)(=O)N(C)C)cc32)CC1 [Thiothixene] | 20.36 |
| CN1[C@@H]2CC[C@H]1C[C@@H](OC(c1ccccc1)c1ccccc1)C2 [Benztropine] | 21.42 |
| CC(CN(C)C)CN1c2ccccc2Sc2ccccc21.CC(CN(C)C)CN1c2ccccc2Sc2ccccc21.O=C(O)C(O)C(O)C(=O)O (centres unmarked) [Trimeprazine Tartrate] | 27.11 |
| C[CH2][Hg][S]c1ccccc1C(=O)[O-].[Na+] [Thimerosal] | 18.55 |

Prompt: Fill in the blank: the reported B-scores (WT) of COc1ccc2c3c1O[C@H]1C[C@@H](O)C=C[C@@]31CCN(C)C2 [Galantamine] is ____.
Completion: 40.50

Prompt: Another compound: CC(C)NCC(O)c1ccc(O)c(O)c1 (centres unmarked) [Isoproterenol Hydrochloride]
Completion: 20.95

Prompt: Another: CCOC(=O)C1=C(COCCN)NC(C)=C(C(=O)OC)C1c1ccccc1Cl (centres unmarked) [Amlodipine Besylate]
Completion: 31.57

Prompt: Another compound to check: CN1CCC(=C2c3ccccc3CC(=O)c3sccc32)CC1 [Ketotifen Fumarate]
Completion: 23.14

Prompt: Same lookup for COc1ccc2c3c1O[C@H]1C[C@@H](O)C=C[C@@]31CCN(C)C2 [Galantamine Hydrobromide] , please.
Completion: 19.90

Prompt: Cool, now CCCCC[C@H](O)/C=C/[C@@H]1[C@H]2C/C(=C/CCCC(=O)O)O[C@H]2C[C@H]1O [Epoprostenol]
Completion: 27.44

Prompt: What would you report for CC(C[N+](C)(C)C)OC(N)=O (centres unmarked) [Bethanechol Chloride] ?
Completion: 19.27

Prompt: And the next one, CC(=O)c1ccc2c(c1)N(CCCN(C)C)c1ccccc1S2 [Acepromazine Maleate] ?
Completion: 44.01

Prompt: Item: C[C@@H](Oc1cc(-c2cnn(C3CCNCC3)c2)cnc1N)c1c(Cl)ccc(F)c1Cl [Crizotinib]
Completion: 22.06

Prompt: Check CCC(NC(C)C)C(O)c1ccc(O)c(O)c1 (centres unmarked) [Isoetharine Mesylate] too.
Completion: 29.54

Prompt: CN(C)CCc1c[nH]c2ccc(CS(=O)(=O)N3CCCC3)cc12 [Almotriptan] ?
Completion: 18.49

Prompt: CN(C)CC[C@@H](c1ccc(Cl)cc1)c1ccccn1 [Dexchlorpheniramine Maleate] ?
Completion: 24.82

###

Property: B-scores (WT); scope: individual compounds
target: MRGPRX2-WT (wild-type MRGPRX2 receptor) (Homo sapiens); construct: expressed in transfected cells; experiment: Primary HTS, Ca2+ mobilization (fluorescence ratio, B-score) in HEK293-Gα15 cells stably expressing wild-type MRGPRX2; type: cell-based; conditions: 10 μM compound, Supplementary Table 2
Counter-ions that a name gives are not always drawn.
// return just the number, without any unit appended

| Compound | Reported endpoint | Numeric value |
| --- | --- | --- |
| CN(C)CCC(c1ccc(Br)cc1)c1ccccn1 (centres unmarked) [Brompheniramine Maleate] | B-scores (WT) | 41.41 |

Prompt: Could you share which B-scores (WT) value was measured for CN1[C@@H]2CC(OC(=O)[C@H](CO)c3ccccc3)C[C@H]1[C@@H]1O[C@@H]12.Cl (some centres unmarked) [Hyoscine hydrochloride] ?
Completion: 11.2

Prompt: Try the compound CC(=O)OCC[N+](C)(C)C [Acetylcholine]
Completion: 23.36

Prompt: // same read-out, input: CC(C)(C)NCC(O)c1cc(O)cc(O)c1.CC(C)(C)NCC(O)c1cc(O)cc(O)c1.O=S(=O)(O)O (centres unmarked) [Terbutaline Hemisulfate]
Completion: 15.97

Prompt: Moving on to the next compound: CN(C)CCOC(c1ccc(Cl)cc1)c1ccccn1 (centres unmarked)
Completion: 11.13

Prompt: Item: Cc1ccc(NC(=O)c2ccc(CN3CCN(C)CC3)cc2)cc1Nc1nc(-c2cccnc2)cs1
Completion: 27.71

###

Measured B-scores (MUT), listed per entry for reference.
target: MRGPRX2-MUT (MRGPRX2 N62S mutation) (Homo sapiens, UniProt Q96LB1, N62S); construct: expressed in transfected cells; assay: Primary HTS, Ca2+ mobilization (fluorescence ratio, B-score) in HEK293-Gα15 cells stably expressing the MRGPRX2 N62S mutation; assay type: cell-based; details: 10 μM compound, MRGPRX2-MUT (N62S) cells, Supplementary Table 2
Counter-ions that a name gives are not always drawn.
Lab note: write the figure by itself, no unit.

// known answers, use as guide
| Compound | Reported endpoint | Numeric value |
| --- | --- | --- |
| CC(C)NCC(O)c1cc(O)cc(O)c1 (centres unmarked) | B-scores (MUT) | 2.41 |
| CNCCCN1c2ccccc2CCc2ccccc21 [Desipramine Hydrochloride] | B-scores (MUT) | -2.96 |
| Cc1ccc(NC(=O)c2ccc(CN3CCN(C)CC3)cc2)cc1Nc1nc(-c2cccnc2)cs1 | B-scores (MUT) | 3.82 |
| O=C(O)c1cn(-c2ccc(F)cc2)c2cc(N3CCNCC3)c(F)cc2c1=O [Sarafloxacin hydrochloride] | B-scores (MUT) | 0 |

With those in mind, consider the next compound.
Prompt: Give its B-scores (MUT) value. Item: CN(C)CCC(c1ccc(Br)cc1)c1ccccn1 (centres unmarked) [Brompheniramine Maleate]
Completion: 1.21
